The reported measurements were obtained from patent US11286268B1.

Target: recombinant eIF4E (Homo sapiens (Human))
Sequence (P06730 whole entry): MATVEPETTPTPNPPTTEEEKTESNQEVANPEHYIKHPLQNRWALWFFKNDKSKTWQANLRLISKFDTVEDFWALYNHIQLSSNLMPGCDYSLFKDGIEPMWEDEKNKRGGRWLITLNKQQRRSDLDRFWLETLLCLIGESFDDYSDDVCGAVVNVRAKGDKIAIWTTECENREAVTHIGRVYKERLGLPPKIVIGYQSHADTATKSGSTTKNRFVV
Test: Fluorescence polarization competition assay for eIF4E binding potency
Settings: inhibition of eIF4E/EDA-m7GDP-ATTO-550 binding; calculated IC50 values, Table 4B; read-out: IC50
pIC50: −log10 of the molar value.

Compound: Cc1nc2cnc(N(C)C3CCN(C4CC(F)(F)C4)CC3)c(C#N)c2c(=O)n1CC#Cc1ccc(Cl)cc1-c1ccnc2c(C(=O)NS(=O)(=O)CC(F)F)csc12 [compound 1819]
pIC50: 8.36
//
Compound: Cc1nc2c(Cl)ccc(C#N)c2c(=O)n1CCOc1ccc(Cl)cc1-c1ccnc2c(C(=O)O)csc12 [compound 1942]
pIC50: 6.74
//
Compound: Cc1nc2c(C(F)(F)F)cc(N3CCN(C)CC3)nc2c(=O)n1CC#Cc1ccc(Cl)cc1-c1ccnc2c(C(=O)O)csc12 [compound 1981]
pIC50: 7.62
//
Compound: Cc1nc2cnc(N(C)C3CCN([C@@H]4C[C@H]4C(F)(F)F)CC3)c(C#N)c2c(=O)n1CC#Cc1ccc(Cl)cc1-c1ccnc2c(C(=O)O)csc12 [compound 1727]
pIC50: 8.42
//
Compound: Cc1nc2cc(C(F)(F)F)cc(C#N)c2c(=O)n1CCOc1ccc(Cl)cc1-c1ccnc2c(-c3cc(O)no3)csc12 [compound 1375]
pIC50: 7.08
//
Compound: Cc1nc2cnc(N3C[C@@H](C)N(CC(F)F)[C@@H](C)C3)c(C#N)c2c(=O)n1CCOc1ccc(Cl)cc1-c1ccnc2c(C(=O)O)csc12 [compound 1350]
pIC50: 7.45
//
Compound: Cc1nc(N(C)C2CCN(CC(C)(F)F)CC2)c(C#N)c2c(=O)n(CCOc3ccc(Cl)cc3-c3ccnc4c(C(=O)O)csc34)c(C)nc12 [compound 1562]
pIC50: 7.77
//
Compound: Cc1cc(-c2cc(Cl)ccc2OCCn2c(C)nc3cc(C(F)(F)F)c4c(c3c2=O)C(=O)CC4)c2scc(C(=O)O)c2n1 [compound 1974]
pIC50: 7.29
//
Compound: N#Cc1cc(C(F)(F)F)cc2ncn(CCOc3ccc(Cl)cc3-c3cccc(C(=O)O)c3)c(=O)c12 [compound 1994]
pIC50: 7.38
//
Compound: Cc1nc2cnc(N(C)C3CCN(CC(C)(F)F)CC3)c(C#N)c2c(=O)n1CC#Cc1ccc(Cl)cc1-c1ccnc2c(C(=O)NS(=O)(=O)c3ccc(C(F)(F)F)cn3)csc12 [compound 1679]
pIC50: 7.53
//
Compound: Cc1nc2cnc(N(C)C3CCN(C(CF)CF)CC3)c(C#N)c2c(=O)n1CCOc1ccc(Cl)cc1-c1ccnc2c(C(=O)O)csc12 [compound 1432]
pIC50: 7.67
//
Compound: Cc1sc2c(-c3cc(Cl)ccc3OCCn3c(C)nc4cc(C(F)(F)F)c(N5CCN(C)CC5)cc4c3=O)ccnc2c1C(=O)O [compound 1210]
pIC50: 7.32
//
Compound: Cc1nc2cnc(N3CCN(C4CC4)CC3)c(C#N)c2c(=O)n1CCOc1ccc(Cl)cc1-c1ccnc2c(C(=O)O)csc12 [compound 1306]
pIC50: 7.41

* * *

Biological target: recombinant eIF4E (Homo sapiens (Human))
Test: Fluorescence polarization competition assay for eIF4E binding potency
Conditions: fluorescence polarization competition, 75 nM recombinant eIF4E, 20 nM EDA-m7GDP-ATTO-550; IC50 class; read-out: elF4E FP
Item-by-item account of IC50

Compound: Cc1cc(-c2cc(Cl)ccc2OCCn2c(C)nc3cnc(-c4cc(F)ccc4C)c(C#N)c3c2=O)c2scc(C(=O)O)c2n1 [compound 1052]
IC50: < 50 nM
--
Compound: Cc1nc2cc(F)c(C(F)F)c(C#N)c2c(=O)n1CCOc1ccc(Cl)cc1-c1ccnc2c(C(=O)O)csc12 [compound 230]
IC50: < 50 nM
--
Compound: Cc1c(C(F)(F)F)cc(C#N)c2c(=O)n(CCOc3ccc(Cl)cc3-c3ccnc4c(C(=O)O)csc34)c(C)nc12 [compound 416]
IC50: < 50 nM
--
Compound: Cc1cc(-c2cc(Cl)ccc2OCCn2c(C)nc3cc(Cl)c(N4CCC4(C)C)c(C#N)c3c2=O)c2scc(C(=O)O)c2n1 [compound 918]
IC50: < 50 nM
--
Compound: Cc1nc2ccc(S(=O)(=O)NCc3ccccc3)c(C#N)c2c(=O)n1CCOc1ccc(Cl)cc1-c1ccnc2c(C(=O)O)csc12 [compound 252]
IC50: < 50 nM
--
Compound: Cc1cc(-c2cc(Cl)ccc2OCCn2c(C)nc3cc(C(F)F)c(C)c(C#N)c3c2=O)c2scc(C(=O)O)c2n1 [compound 627]
IC50: < 50 nM
--
Compound: Cc1sc2c(-c3cc(Cl)ccc3OCCn3c(C)nc4c(F)cc(C(F)F)c(C#N)c4c3=O)ccnc2c1C(=O)O [compound 123]
IC50: < 50 nM
--
Compound: CCc1cc(-c2cc(Cl)ccc2OCCn2c(C)nc3cc(C(F)(F)F)c(C4=CCN(C)CC4)c(C#N)c3c2=O)c2scc(C(=O)O)c2n1 [compound 1088]
IC50: 50 to 1000 nM
--
Compound: Cc1cc(-c2cc(Cl)ccc2OCCn2c(C)nc3cc(C(F)(F)F)c(CN4CCN(CC(F)F)CC4)c(C#N)c3c2=O)c2scc(C(=O)O)c2n1 [compound 739]
IC50: < 50 nM
--
Compound: Cc1nc2cnc(C3CC3)c(C#N)c2c(=O)n1CCOc1ccc(Cl)cc1-c1ccc(Cl)c2c(C(=O)O)csc12 [compound 773]
IC50: < 50 nM
--
Compound: CO[C@H]1C[C@@H](c2ncc3nc(C)n(CCOc4ccc(Cl)cc4-c4cc(C)nc5c(C(=O)O)csc45)c(=O)c3c2C#N)C1 [compound 1152]
IC50: < 50 nM
--
Compound: Cc1nc2cnc(N(C)C3CCN(CC(=O)C(C)C)CC3)c(C#N)c2c(=O)n1CCOc1ccc(Cl)cc1-c1ccnc2c(C(=O)O)csc12 [compound 1127]
IC50: < 50 nM
--
Compound: CCc1cc(-c2cc(Cl)ccc2OCCn2c(C)nc3cc(C(F)(F)F)c(-c4ccncc4)c(C#N)c3c2=O)c2scc(C(=O)O)c2n1 [compound 1012]
IC50: < 50 nM
--
Compound: Cc1cc(-c2cc(Cl)ccc2OCCn2c(C)nc3cc(C(F)(F)F)cc(C#N)c3c2=O)c2sc(C)c(C(=O)O)c2n1 [compound 668]
IC50: < 50 nM
--
Compound: Cc1cc(-c2cc(Cl)ccc2OCCn2c(C)nc3cc(Cl)c(-c4cccc(C(F)F)n4)c(C#N)c3c2=O)c2scc(C(=O)O)c2n1 [compound 758]
IC50: < 50 nM
--
Compound: N#Cc1cc2c(=O)n(CCOc3ccc(Cl)cc3-c3ccc(C(=O)O)o3)cnc2cn1 [compound 79]
IC50: > 1000 nM
--
Compound: Cc1cc(-c2cc(Cl)ccc2OCCn2c(C)nc3cc(Cl)c(N(C)C4CC4)c(C#N)c3c2=O)c2scc(C(=O)O)c2n1 [compound 957]
IC50: < 50 nM
--
Compound: Cc1nc2cnc(N(C)C3CCN(CC(=O)C4CC4)CC3)c(C#N)c2c(=O)n1CCOc1ccc(Cl)cc1-c1ccnc2c(C(=O)O)csc12 [compound 1128]
IC50: < 50 nM
--
Compound: N#Cc1cccc2nc(C(F)F)n(CCOc3ccc(Cl)cc3-c3ccnc(C(=O)O)c3)c(=O)c12 [compound 166]
IC50: < 50 nM
--
Compound: Cc1nc2cc(C(F)(F)F)c(N3CCN(C)CC3)c(C#N)c2c(=O)n1CCOc1ccc(Cl)cc1-c1ccnc2ccsc12 [compound 705]
IC50: < 50 nM
--
Compound: Cc1nc2cc(C(F)(F)F)cc(C#N)c2c(=O)n1CCOc1ccc(Cl)cc1-c1cncc2c(C(=O)O)csc12 [compound 319]
IC50: 50 to 1000 nM
--
Compound: Cc1nc2cc(C(F)(F)F)cc(C#N)c2c(=O)n1CCOc1ccc(Cl)cc1-c1cnnc2c(C(=O)O)csc12 [compound 314]
IC50: < 50 nM
--
Compound: N#Cc1cc(C(F)(F)F)cc2nc(CF)n(CCOc3ccc(Cl)cc3-c3cccc(C(=O)O)c3)c(=O)c12 [compound 182]
IC50: < 50 nM
--
Compound: Cc1cc(-c2cc(Cl)ccc2OCCn2c(C)nc3cc(Cl)c(N4CCCC4(C)C)c(C#N)c3c2=O)c2scc(C(=O)O)c2n1 [compound 920]
IC50: < 50 nM
--
Compound: Cc1nc2cc(C(F)(F)F)cc(C#N)c2c(=O)n1CCOc1ccc(Cl)cc1-c1cccc2c(C(=O)O)csc12 [compound 402]
IC50: 50 to 1000 nM
--
Compound: Cc1nc2c(N3C4CCC3CN(C)C4)ncc(C#N)c2c(=O)n1CCOc1ccc(Cl)cc1-c1ccnc2c(C(=O)O)csc12 [compound 857]
IC50: < 50 nM
